Values were extracted from paper PMC3794980.

Molecular target: DRB1*1501 (Homo sapiens, UniProt P01903+P01911)
Assay: biochemical
Format: binding
Where no end group is shown, it is not given here.
reportedProperty: pIC50
One number for each entry, as −log10 of the molar value.

For the sequence EGKVVQYENLKYTVI [Envelope 126-140] , what pIC50 is on record?
7.68

====

Molecular target: DRB1*1302 (Homo sapiens, UniProt P01903+P01911, A100E/A169T/K41T/L162R/M171V/P40S/Q125H/Q178H/Q39Y/Q99D/R42S/S66N/T262R/V115G/W38E/Y61H)
Sequence (P01903 26-254 limits assumed, other chains not shown): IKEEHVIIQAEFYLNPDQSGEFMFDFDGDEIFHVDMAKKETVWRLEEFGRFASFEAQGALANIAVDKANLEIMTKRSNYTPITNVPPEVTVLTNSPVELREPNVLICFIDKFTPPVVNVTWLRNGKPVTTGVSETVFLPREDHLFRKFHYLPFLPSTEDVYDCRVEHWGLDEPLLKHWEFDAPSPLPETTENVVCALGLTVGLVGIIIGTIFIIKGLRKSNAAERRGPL
Experiment: biochemical
Format: binding
Conditions: competitive inhibition of radiolabeled standard peptide; '-' distinct from ND; read-out: Binding Affinity (nM) DRB1*1302
For each record, write down the corresponding IC50.
Numbers only, in nM.

Example cases with answers are listed next.
{"smilesString": "CC[C@H](C)[C@H](NC(=O)[C@H](CC(=O)O)NC(=O)CNC(=O)[C@@H](NC(=O)[C@@H](NC(=O)[C@@H](NC(=O)[C@@H](NC(=O)[C@H](CC(C)C)NC(=O)[C@@H](N)CCCCN)[C@@H](C)O)C(C)C)C(C)C)C(C)C)C(=O)N[C@H](C(=O)NCC(=O)N[C@H](C(=O)N[C@@H](CC(C)C)C(=O)N[C@@H](CCC(=O)O)C(=O)N[C@@H](CCC(N)=O)C(=O)O)C(C)C)[C@@H](C)CC", "displayUnit": "nM", "value": 483}
{"smilesString": "CC[C@H](C)[C@H](NC(=O)[C@H](CCCCN)NC(=O)CNC(=O)[C@H](CCC(=O)O)NC(=O)[C@@H](NC(=O)[C@H](CS)NC(=O)[C@H](CC(C)C)NC(=O)[C@H](CCCCN)NC(=O)[C@H](CCCNC(=N)N)NC(=O)[C@H](CC(C)C)NC(=O)[C@@H](NC(=O)[C@H](C)NC(=O)[C@H](CC(C)C)NC(=O)[C@H](CCC(N)=O)NC(=O)[C@@H](N)[C@@H](C)O)[C@@H](C)O)[C@@H](C)CC)C(=O)O", "displayUnit": "nM", "value": 1080}

Read the next record carefully.
For the molecule "CC(C)C[C@H](NC(=O)[C@@H](NC(=O)CNC(=O)[C@H](CC(N)=O)NC(=O)[C@H](CO)NC(=O)[C@H](Cc1c[nH]c2ccccc12)NC(=O)[C@H](CC(C)C)NC(=O)[C@@H](NC(=O)[C@H](Cc1c[nH]cn1)NC(=O)[C@H](CO)NC(=O)[C@H](CCCCN)NC(=O)[C@@H]1CCCN1C(=O)[C@@H](N)Cc1c[nH]c2ccccc12)[C@@H](C)O)C(C)C)C(=O)N[C@@H](CCC(=O)O)C(=O)N[C@@H](CO)C(=O)O" , what IC50 is on record?
59

====

Molecular target: DRB5*0101 (Homo sapiens, UniProt P01903+Q30154)
Assay: biochemical
reportedProperty: IC50 (µM)
Answers are plain numbers, in µM.

For the molecule "CC(C)[C@H](NC(=O)[C@@H]1CCCN1C(=O)[C@@H](NC(=O)[C@H](C)NC(=O)[C@H](CO)NC(=O)[C@@H](N)CS)C(C)C)C(=O)N[C@@H](Cc1c[nH]cn1)C(=O)N[C@@H](Cc1c[nH]c2ccccc12)C(=O)N[C@H](C(=O)N1CCC[C@H]1C(=O)N[C@H](C(=O)N[C@@H](CO)C(=O)N[C@@H](CCCNC(=N)N)C(=O)N[C@H](C(=O)N[C@H](C(=O)N[C@@H](Cc1c[nH]c2ccccc12)C(=O)O)[C@@H](C)O)[C@@H](C)O)[C@@H](C)O)C(C)C" , what IC50 is on record?
1.95
